# Test Target: Autotaxin (Homo sapiens (Human))
This listing pairs molecules with measured IC50.

- CC(C)[C@@H](NC(=O)c1cc(C(F)(F)F)ccc1F)C(=O)N1CCC2(CC1)C(=O)N(C)C(=O)N2C1CCCC1 [Example 125]: < 500 nM

Q. Lab note: need IC50 with Autotaxin (Homo sapiens (Human)) for entry CCc1ccc(F)c(C(=O)N[C@@H](C(=O)N2CCC3(CC2)C(=O)N(C)C(=O)N3c2ccc3[nH]ncc3c2)C(C)C)c1 [Example 55] , please look it up.
A. < 500 nM

Q. Lab note: need IC50 with Autotaxin (Homo sapiens (Human)) for entry CCc1ccc(F)c(C(=O)N[C@@H](C(=O)N2CCC3(CC2)C(=O)N(C)C(=O)N3c2ccc3[nH]c(=O)oc3c2)C(C)C)c1 [Example 31] , please look it up.
A. < 500 nM

----------
This listing pairs compounds with measured pIC50.
# Test Target: Autotaxin (Homo sapiens (Human))
pIC50: −log10 of the molar value.

* CC(C)[C@@H](NC(=O)c1cc(C(F)(F)F)ccc1F)C(=O)N1CCC2(CC1)C(=O)N(C)C(=O)N2c1ccc(NC2COC2)cc1 | ≤ 6.00
* COc1ccc(N2C(=O)N(C)C(=O)C23CCN(C(=O)[C@H](NC(=O)c2cc(C(F)(F)F)ccc2F)C(C)C)CC3)cc1 | > 6.30
* CC(C)[C@@H](NC(=O)c1cc(C(F)(F)F)ccc1F)C(=O)N1CCC2(CC1)C(=O)N(C)C(=O)N2c1ccc(-c2nn[nH]n2)cc1 | > 6.30
* CC(C)[C@@H](NC(=O)c1cc(C(F)(F)F)ccc1F)C(=O)N1CCC2(CC1)C(=O)N(C)C(=O)N2c1cccc(Cl)c1 | > 6.30
* COc1ccc(N2C(=O)N(C)C(=O)C23CCN(C(=O)[C@H](NC(=O)c2cc(C(F)(F)F)ccc2F)C(C)C)CC3)cc1F | > 6.30
* CCc1ccc(F)c(C(=O)N[C@@H](C(=O)N2CCC3(CC2)C(=O)N(C)CN3c2ccc(OC)cc2)C(C)C)c1 | > 6.30

Q. Which pIC50 is listed for CCc1ccc(F)c(C(=O)N[C@@H](C(=O)N2CCC3(CC2)C(=O)N(CC#N)CN3c2ccccc2)C(C)C)c1 ?
A. > 6.30

Q. Which pIC50 is listed for CC(C)[C@@H](NC(=O)c1cc(C(F)(F)F)ccc1F)C(=O)N1CCC2(CC1)C(=O)N(C)CN2c1ccc(-c2nc[nH]n2)cc1 ?
A. > 6.30

Q. Which pIC50 is listed for Cc1cccc(C(=O)N[C@@H](C(=O)N2CCC3(CC2)C(=O)N(C)C(=O)N3c2ccccc2)C2CCCCC2)c1 ?
A. > 6.30

----------
// each record: one item and its IC50 for Autotaxin (Homo sapiens (Human))
Counter-ions that a name gives are not always drawn.

- CC(C)[C@@H](NC(=O)c1cccnc1)C(=O)N1CCC2(CC1)C(=O)N(C)C(=O)N2c1ccc2[nH]ncc2c1: ≥ 1000 nM
- CC(C)[C@@H](NC(=O)c1cccc(F)c1)C(=O)N1CCC2(CC1)C(=O)N(C)C(=O)N2c1ccccc1: ≥ 1000 nM
- CN1C(=O)N(c2ccc3[nH]ncc3c2)C2(CCN(C(=O)C(C)(C)NC(=O)c3cc(C(F)(F)F)ccc3F)CC2)C1=O: ≥ 1000 nM

Q. Which IC50 is listed for Cc1nc2ccc(N3C(=O)N(C)C(=O)C34CCN(C(=O)[C@H](NC(=O)c3cc(C(F)(F)F)ccc3F)C(C)C)CC4)cc2[nH]1 [Example 19, trifluoroacetic Acid Salt] ?
A. ≥ 1000 nM

Q. Which IC50 is listed for C[C@@H](NC(=O)c1cc(C(F)(F)F)ccc1F)C(=O)N1CCC2(CC1)C(=O)N(C)C(=O)N2c1ccc2[nH]ncc2c1 ?
A. ≥ 1000 nM

Q. Which IC50 is listed for CC(C)[C@@H](NC(=O)c1cc(C(F)(F)F)ccc1F)C(=O)N1CCC2(CC1)C(=O)N(C)C(=O)N2c1ccc2c(c1)OCC(=O)N2 ?
A. 500 to 1000 nM

Q. Which IC50 is listed for CC(C)[C@@H](NC(=O)c1cc(C(F)(F)F)ccc1F)C(=O)N1CCC2(CC1)C(=O)N(C)CN2c1ccc(S(C)(=O)=O)cc1 ?
A. < 500 nM

Q. Which IC50 is listed for CC(C)[C@@H](NC(=O)c1cc(C(F)(F)F)ccc1F)C(=O)N1CCC2(CC1)C(=O)N(C)C(=O)N2Cc1ccc2[nH]ncc2c1 ?
A. < 500 nM

----------
# Test Target: Autotaxin (Homo sapiens (Human), UniProt Q13822)
Where a name gives a salt, the structure may show the parent alone.
This listing pairs compounds with measured IC50.

Some solved entries appear below for comparison.
* CCc1ccc(F)c(C(=O)N[C@@H](C(=O)N2CCC3(CC2)C(=O)N(C)C(=O)N3c2ccccc2)C(C)C)c1 | < 500 nM
* CC(C)[C@@H](NC(=O)c1cc(C(F)(F)F)ccc1F)C(=O)N1CCC2(CC1)C(=O)N(C)C(=O)N2c1ccc(OCCO)cc1 | < 500 nM
* CC(C)[C@@H](NC(=O)c1cc(C(F)(F)F)ccc1F)C(=O)N1CCC2(CC1)C(=O)N(C)C(=O)N2c1cccc(C#N)c1 | < 500 nM
* CC(C)[C@@H](NC(=O)c1cc(C(F)(F)F)ccc1F)C(=O)N1CCC2(CC1)C(=O)N(C)C(=O)N2c1ccc(=O)[nH]c1 | ≥ 1000 nM
* CC(C)[C@@H](NC(=O)c1cc(C(F)(F)F)ccc1F)C(=O)N1CCC2(CC1)C(=O)N(C)C(=O)N2Cc1ccc2nccnc2c1 | < 500 nM
* CC(C)[C@@H](NC(=O)c1cc(C(F)(F)F)ccc1F)C(=O)N1CCC2(CC1)C(=O)N(C)C(=O)N2c1ccc2[nH]nnc2c1 | < 500 nM
* CC(C)[C@@H](NC(=O)c1cc(C(F)(F)F)ccc1F)C(=O)N1CCC2(CC1)C(=O)N(C)C(=O)N2c1ccc2nccn2c1 [Example 14, trifluoroacetic Acid Salt] | < 500 nM
* CC(C)[C@@H](NC(=O)c1cc(C(F)(F)F)ccc1F)C(=O)N1CCC2(CC1)C(=O)N(C)C(=O)N2c1cccnc1 | 500 to 1000 nM

Q. Which IC50 is listed for CC(C)[C@@H](NC(=O)c1cc(Cl)ccc1Cl)C(=O)N1CCC2(CC1)C(=O)N(C)C(=O)N2c1ccccc1 ?
A. ≥ 1000 nM

Q. Which IC50 is listed for Cc1cccc(C(=O)N[C@@H](C(=O)N2CCC3(CC2)C(=O)N(C)CN3c2cccc(Cl)c2)C(C)C)c1 ?
A. < 500 nM

Q. Which IC50 is listed for CC(C)[C@@H](NC(=O)c1cccc(C(F)(F)F)c1)C(=O)N1CCC2(CC1)C(=O)N(C)C(=O)N2c1ccc2[nH]ncc2c1 ?
A. < 500 nM

----------
// each record: one item and its IC50 for Autotaxin (Homo sapiens (Human))

Some solved entries appear below for comparison.
- Cc1nc2cc(N3C(=O)N(C)C(=O)C34CCN(C(=O)[C@H](NC(=O)c3cc(C(F)(F)F)ccc3F)C(C)C)CC4)ccc2o1 [Example 246]: < 500 nM
- CC(C)[C@@H](NC(=O)c1cc(C(F)(F)F)ccc1F)C(=O)N1CCC2(CC1)C(=O)N(C)C(=O)N2c1ccc2[nH]c(=O)oc2c1 [Example 28]: < 500 nM
- CC(C)[C@H](NC(=O)c1cc(C(F)(F)F)ccc1F)C(=O)N1CCC2(CC1)C(=O)N(C)C(=O)N2c1ccc2[nH]ncc2c1 [Example 69]: ≥ 1000 nM

Q. Lab note: need IC50 with Autotaxin (Homo sapiens (Human)) for entry CC(C)[C@@H](NC(=O)c1ccccn1)C(=O)N1CCC2(CC1)C(=O)N(C)C(=O)N2c1ccc2[nH]ncc2c1 [Example 228] , please look it up.
A. ≥ 1000 nM

Q. Lab note: need IC50 with Autotaxin (Homo sapiens (Human)) for entry CC(C)[C@@H](NC(=O)C12CC3CC(CC(C3)C1)C2)C(=O)N1CCC2(CC1)C(=O)N(C)C(=O)N2c1ccc2[nH]ncc2c1 [Example 67] , please look it up.
A. ≥ 1000 nM

Q. Lab note: need IC50 with Autotaxin (Homo sapiens (Human)) for entry COC1CCC(N2C(=O)N(C)C(=O)C23CCN(C(=O)[C@H](NC(=O)c2cc(C(F)(F)F)ccc2F)C(C)C)CC3)CC1 (stereo partly drawn) [Example 241] , please look it up.
A. ≥ 1000 nM

----------
// each record: one item and its IC50 for Autotaxin (Homo sapiens (Human))

- CN1C(=O)N(c2ccc3[nH]ncc3c2)C2(CCN(C(=O)C3(NC(=O)c4cc(C(F)(F)F)ccc4F)CC3)CC2)C1=O [Example 71]: ≥ 1000 nM

Q. Lab note: need IC50 with Autotaxin (Homo sapiens (Human)) for entry CCc1ccc(F)c(C(=O)N[C@@H](C(=O)N2CCC3(CC2)C(=O)N(C)CN3c2ccc(OCC(N)=O)cc2)C(C)C)c1 [Example 169] , please look it up.
A. < 500 nM

Q. Lab note: need IC50 with Autotaxin (Homo sapiens (Human)) for entry Cc1ccc(F)c(C(=O)N[C@@H](C(=O)N2CCC3(CC2)C(=O)N(C)CN3c2ccccc2)C(C)C)c1 [Example 141] , please look it up.
A. < 500 nM

Q. Lab note: need IC50 with Autotaxin (Homo sapiens (Human)) for entry COc1ccc(N2C(=O)N(C)C(=O)C23CCN(C(=O)[C@H](NC(=O)c2cc(C(F)(F)F)ccc2F)C(C)C)CC3)cn1 [Example 25] , please look it up.
A. < 500 nM

Q. Lab note: need IC50 with Autotaxin (Homo sapiens (Human)) for entry COC(=O)Nc1ccc(N2CN(C)C(=O)C23CCN(C(=O)[C@H](NC(=O)c2cc(C(F)(F)F)ccc2F)C(C)C)CC3)cc1 [Example 175] , please look it up.
A. < 500 nM

Q. Lab note: need IC50 with Autotaxin (Homo sapiens (Human)) for entry CC(C)[C@@H](NC(=O)c1cc(C(F)(F)F)ccc1F)C(=O)N1CCC2(CC1)C(=O)N(C)C(=O)N2c1ccc(=O)n(C)c1 [Example 23] , please look it up.
A. 500 to 1000 nM
